Test system: SNB-19 CNS
Assay: NCI-60 one-dose screen, 48 h (100 = growth as untreated, 0 = no growth, -100 = all killed)
Settings: 10 µM unless noted
Protocol: Growth inhibition of the SNB-19 human tumor cell line is measured as a screen for anti-cancer activity. Cells are grown in 96 well plates and exposed to the test compound for 48 hours. Compounds are tested at a single concentration, which is 10^-5 M for most compounds. The reported endpoint is percent growth (GI% or GIPRCNT), where numbers from 0 - 100% represent growth inhibition, and numbers from -100% - 0 represent cell death. For example, a value of 40 represents 60% growth inhibition. […]
The panel holds about 83,000 compounds, 20% with a hit somewhere; the sample as a whole holds those more often.
Hi there, I'd appreciate the recorded growth for every entry that follows.
Give bare numbers, in %.

// solved cases for growth follow
COMPOUND	MEASURED NUMBER
NC(=O)c1c(NC(=O)c2cccs2)sc2c1CCC(=O)C2	40.2
Cc1[nH]c(C2CC(c3ccc(C(F)(F)F)c(F)c3)=NN2c2ccccc2)c(C)c1C(=O)NCC(F)(F)F (configuration not stated)	85.6
Cc1ccnc(Nc2ccc([N+](=O)[O-])c(NCCN3CCOCC3)n2)c1	58.3
CCN(CC)CCN1C(=O)c2c(c(C)c3c(oc4ccc(OC)cc43)c2C)C1=O	88
CCOc1cccc(/C=N/NC(=O)c2cccc(Nc3ccnc(C(F)(F)F)c3)c2)c1O	35.1
CN1CCN(C(=S)SCCCCOc2cc(=O)oc3ccccc23)CC1	94.7

// next entry
Lab note: compound CCOC(=O)C#Cc1c(C(=O)OCC)nnn1Cc1ccc(C(F)(F)F)cc1 tested on SNB-19 CNS; recorded growth was 85.5
